Note to self: these molecules have IC50 reported for Vascular endothelial growth factor receptor 2 (Homo sapiens, UniProt P35968) in various publications.

Exercise: Please state recorded IC50 (tested on Vascular endothelial growth factor receptor 2 (Homo sapiens, UniProt P35968)) of `c1ccc(-c2cnc3[nH]ccc3c2)cc1`
Key: ≤ 10 µM

Exercise: Hello, I am looking for reported IC50 with Vascular endothelial growth factor receptor 2 (Homo sapiens, UniProt P35968) for `Cn1cc(-c2cc(-c3ccc(N4C[C@@H]5[C@H](C4)[C@H]5NC(=O)c4cc(F)ccc4Cl)nc3)c3c(C#N)cnn3c2)cn1` . Could you help?
Key: ≤ 0.01 µM

Exercise: For the record `O=C(Nc1cc(NC2CC2)cc(C(F)(F)F)c1)Nc1ccc(Oc2ccnc(NC(=O)C3CC3)c2)c(F)c1` , what value of IC50 is listed for Vascular endothelial growth factor receptor 2 (Homo sapiens, UniProt P35968)?
Key: 0.0099 µM

Exercise: Lab note: need IC50 with Vascular endothelial growth factor receptor 2 (Homo sapiens, UniProt P35968) for entry `O=C1Nc2nc(Cl)ccc2C1=CNc1ccc2cn[nH]c2c1` , please look it up.
Key: 0.1 to 1 µM

Exercise: Field: IC50 (Vascular endothelial growth factor receptor 2 (Homo sapiens, UniProt P35968)). Entry: `CN1CCN(c2ccc(Nc3ncc(-c4cccc(OC5CCCCC5)c4)o3)cc2)CC1`
Key: < 1 µM

* * *

Below are IC50 measurements against Vascular endothelial growth factor receptor 2 (Homo sapiens) drawn from the literature.
Number in nM, nothing else.

Exercise: Please tell me: IC50 of Cc1cccc(NC(=O)Nc2ccc(C3CN=C4c5ccccc5NC(=O)N4C3)cc2)c1 (stereo not shown) , system Vascular endothelial growth factor receptor 2 (Homo sapiens)?
Key: 330

Exercise: Item `C=CC(=O)Nc1cc2c(Nc3ccc(Br)cc3F)ncnc2cc1OCCNC(=O)C=CCN(C)C` with Vascular endothelial growth factor receptor 2 (Homo sapiens) - IC50?
Key: 875

Exercise: Hi! What's the reported IC50 for `Nc1nc(Nc2cccnc2)nn1-c1ccc(C(F)(F)F)cn1` on Vascular endothelial growth factor receptor 2 (Homo sapiens)?
Key: 200

Exercise: Request: IC50, test system Vascular endothelial growth factor receptor 2 (Homo sapiens), entry `Cc1ccc(NC(=O)c2cccc3cc(Oc4ccnc(N)n4)ccc23)cc1C(F)(F)F`
Key: 20

* * *

pIC50 values for Vascular endothelial growth factor receptor 2 (Homo sapiens, UniProt P35968), compiled from several publications.
pIC50: −log10 of the molar value.

Exercise: State its pIC50 on Vascular endothelial growth factor receptor 2 (Homo sapiens, UniProt P35968): `O=C(Nc1cccc(Oc2cc(-c3cnn(CCN4CCOCC4)c3)ncn2)c1)Nc1ccc(Cl)c(C(F)(F)F)c1`
Key: ≥ 5.00

Exercise: Give pIC50 (Vascular endothelial growth factor receptor 2 (Homo sapiens, UniProt P35968)) of the following molecule: `Cc1ccccc1C(=O)c1c[nH]c2nccc(-c3ccc(C(N)=O)cc3)c12`
Key: ≥ 5.00

Exercise: Please tell me: pIC50 of `CCn1cc(S(=O)(=O)Nc2cccc(C(=O)c3c[nH]c4ncc(C#N)cc34)c2F)cn1` , system Vascular endothelial growth factor receptor 2 (Homo sapiens, UniProt P35968)?
Key: ≥ 5.00

Exercise: Vascular endothelial growth factor receptor 2 (Homo sapiens, UniProt P35968) / pIC50 / CCCC(C)S(=O)(=O)Nc1ccc(F)c(C(=O)c2c[nH]c3ncc(OC)cc23)c1F (stereo not drawn) : value?
Key: ≥ 5.00

Exercise: Please provide the recorded pIC50 for `O=C(Nc1cccc(Oc2cc(-c3nc(C(F)(F)F)c[nH]3)ncn2)c1)Nc1ccc(Cl)c(C(F)(F)F)c1` , tested on Vascular endothelial growth factor receptor 2 (Homo sapiens, UniProt P35968).
Key: < 5.00

Exercise: Please state recorded pIC50 (tested on Vascular endothelial growth factor receptor 2 (Homo sapiens, UniProt P35968)) of `CCOc1cc(-c2ccc(N3C[C@@H]4C[C@@](C)(NC(=O)c5ncc(F)cc5Cl)C[C@@H]4C3)nc2)c2c(C#N)cnn2c1`
Key: 7.30 to 8.00

Exercise: API: value(readout= pIC50, system= Vascular endothelial growth factor receptor 2 (Homo sapiens, UniProt P35968), query= `COc1cc(OC)cc(N(CC2CC2)c2ccc3ncc(-c4ccc5[nH]ccc5c4)nc3c2)c1` )
Key: < 5.00

Exercise: Provide value of pIC50 for this record tested with Vascular endothelial growth factor receptor 2 (Homo sapiens, UniProt P35968): `Cc1cc(C)cc(S(=O)(=O)Nc2ccc(F)c(C(=O)c3c[nH]c4ncc(Cl)cc34)c2F)c1`
Key: ≥ 5.00

Exercise: Lab note: need pIC50 for `COc1cc(-c2cc3nccc(-c4cccc(CNC(C)=O)c4)c3o2)cc(OC)c1OC` on Vascular endothelial growth factor receptor 2 (Homo sapiens, UniProt P35968), anyone have it?
Key: 4.30 to 5.52

Exercise: Request - read-out pIC50 | tested on Vascular endothelial growth factor receptor 2 (Homo sapiens, UniProt P35968) | molecule Cn1cc(-c2cc(-c3ccc(N4C[C@@H]5[C@H](CNC(=O)C(O)c6ccccc6)[C@@H]5C4)nc3)c3c(C#N)cnn3c2)cn1 (stereo partly drawn)
Key: ≥ 8.00

Exercise: Please state recorded pIC50 (tested on Vascular endothelial growth factor receptor 2 (Homo sapiens, UniProt P35968)) of `COCCOc1cc2ncnc(Nc3ccc(NC(=O)Nc4ccccc4)c(Cl)c3)c2c2c1OCCO2`
Key: > 7.30

Exercise: Any idea what pIC50 came out for `NC(=O)c1cccc(-c2cnc3[nH]cc(C(=O)c4cccc(NS(=O)(=O)c5cccnc5)c4)c3c2)c1` on Vascular endothelial growth factor receptor 2 (Homo sapiens, UniProt P35968)?
Key: ≥ 5.00

Exercise: Lab note: need pIC50 with Vascular endothelial growth factor receptor 2 (Homo sapiens, UniProt P35968) for entry `CC(C)(O)COc1cc2nccc(Oc3ccc(NC(=O)c4cccn(-c5ccc(F)cc5)c4=O)c(Cl)c3)c2c2c1OCCO2` , please look it up.
Key: 6.30 to 7.30

Exercise: What reported pIC50 corresponds to `O=C(c1cccc(NS(=O)(=O)C2CCCCC2)c1)c1c[nH]c2ncc(Cl)cc12` on Vascular endothelial growth factor receptor 2 (Homo sapiens, UniProt P35968)?
Key: ≥ 5.00

Exercise: Record lookup: for Vascular endothelial growth factor receptor 2 (Homo sapiens, UniProt P35968), what pIC50 belongs to `COc1ccnc2[nH]cc(C(=O)c3c(F)ccc(NS(=O)(=O)N(C)C)c3F)c12` ?
Key: ≥ 5.00

Exercise: State its pIC50 on Vascular endothelial growth factor receptor 2 (Homo sapiens, UniProt P35968): `O=C(Nc1cccc(Oc2cc(-c3ccnc4ncnn34)ncn2)c1)Nc1ccc(Cl)c(C(F)(F)F)c1`
Key: ≥ 5.00

Exercise: Find pIC50 (Vascular endothelial growth factor receptor 2 (Homo sapiens, UniProt P35968)) for the entry `COc1cc2nccc(Oc3ccc(NC(=O)C4(C(=O)Nc5ccc(F)c(O)c5)CC4)cc3)c2cc1OC`
Key: > 7.30

Exercise: Lab request: please report pIC50 under test system Vascular endothelial growth factor receptor 2 (Homo sapiens, UniProt P35968) for `CNC(=O)c1cc(Oc2ccc(N(C)C(=O)Nc3ccc(Cl)c(C(F)(F)F)c3)cc2)ccn1`
Key: ≥ 5.00

* * *

Collected set of IC50 measured with Vascular endothelial growth factor receptor 2 (Homo sapiens) across studies.

Exercise: Param readout = IC50; param system = Vascular endothelial growth factor receptor 2 (Homo sapiens); param query = `COc1cccc(Cc2c[nH]c3ncc(-c4ccc(N)cc4)cc23)c1` ; response: value
Key: ≤ 10000 nM

Exercise: Please state recorded IC50 (tested on Vascular endothelial growth factor receptor 2 (Homo sapiens)) of COc1cc2nccc(OCC3CC(NC(=O)NC4CC4)C3)c2cc1C(N)=O (stereo not shown)
Key: 200 to 1000 nM

Exercise: Param readout = IC50; param system = Vascular endothelial growth factor receptor 2 (Homo sapiens); param query = `COc1cc2ncnc(Nc3ccc(NC(=O)Nc4ccccc4)c(Cl)c3)c2c2c1OCCO2` ; response: value
Key: 50 to 500 nM

Exercise: What measured IC50 is associated with Cc1[nH]c(/C=C2\C(=O)Nc3ccc(F)cc32)c(C)c1NC(=O)C1CCCCN1 (stereo not shown) on Vascular endothelial growth factor receptor 2 (Homo sapiens)?
Key: 89 nM

Exercise: # get_value(readout= IC50, system= Vascular endothelial growth factor receptor 2 (Homo sapiens)) for `CCOc1ccn(-c2ccc(F)cc2)c(=O)c1C(=O)Nc1ccc(Oc2ccnc3cc(OCCOC)c4c(c23)OCCO4)c(F)c1`
Key: ≤ 50 nM

Exercise: # query: IC50 | item `COc1cc2nccc(Oc3ccc(NC(=O)c4c(C)n(C)c(C)c(OC)c4=O)cc3)c2nc1OC` | system: Vascular endothelial growth factor receptor 2 (Homo sapiens)
Key: > 300 nM

Exercise: Vascular endothelial growth factor receptor 2 (Homo sapiens) / IC50 / `COc1cc(Nc2nc3c(-c4cccc(NS(C)(=O)=O)c4)nccn3n2)cc(OC)c1` : value?
Key: < 300 nM

Exercise: Record lookup: for Vascular endothelial growth factor receptor 2 (Homo sapiens), what IC50 belongs to `COc1cc(C2=C(c3cn(CCN4CCCCC4)c4ccccc34)C(=O)NC2=O)cc(OC)c1OC` ?
Key: 1210 nM

Exercise: Please state recorded IC50 (tested on Vascular endothelial growth factor receptor 2 (Homo sapiens)) of `CC(=O)Nc1cc(Oc2ccc(NC(=O)Nc3cccc(S(C)(=O)=O)c3)cc2)ncn1`
Key: 14 nM

Exercise: Give Vascular endothelial growth factor receptor 2 (Homo sapiens) IC50 for `CCOc1ccn(C2CCCCC2)c(=O)c1C(=O)Nc1ccc(Oc2ccnc3cc(OC)c4c(c23)OCCO4)c(F)c1`
Key: > 5000 nM

Exercise: Query for Vascular endothelial growth factor receptor 2 (Homo sapiens): what IC50 does the record show for `COc1cc(-c2cc3nccc(-c4cccc5[nH]ncc45)c3o2)cc(OC)c1OC` ?
Key: 300 to 3000 nM

Exercise: Value wanted: IC50 (Vascular endothelial growth factor receptor 2 (Homo sapiens)) of entry `O=C(O)c1ccc(Sc2c[nH]c3ncccc23)nc1`
Key: ≤ 10000 nM

Exercise: Checklist item: IC50 tested on Vascular endothelial growth factor receptor 2 (Homo sapiens), entry `CCCS(=O)(=O)Nc1ccc(F)c(Nc2ncnc3ccc(-c4cccnc4F)cc23)c1F` , value?
Key: > 3000 nM

Exercise: Requested read-out IC50, target or system Vascular endothelial growth factor receptor 2 (Homo sapiens), entry `Cc1cc(NC(=O)Nc2cccc(C(F)(F)F)c2)cc(Oc2cc(NC(=O)C3CC3)ncn2)c1`
Key: 200 nM

Exercise: So what IC50 did `CC(C)CC(=O)N[C@H]1[C@@H]2CN(c3ccc(-c4cc(-c5cnn(C)c5)cn5ncc(C#N)c45)cn3)C[C@@H]21` get with Vascular endothelial growth factor receptor 2 (Homo sapiens)?
Key: 10 to 50 nM

Exercise: Lookup: IC50 / Vascular endothelial growth factor receptor 2 (Homo sapiens) / `Fc1cccc(COc2ccc(Nc3ncnc4ccc(-c5ccc(CNCCc6cccc(Cl)c6)o5)cc34)cc2Cl)c1`
Key: > 10000 nM

Exercise: Lab note: need IC50 with Vascular endothelial growth factor receptor 2 (Homo sapiens) for entry `CCS(=O)(=O)Nc1ccc(F)c(C(=O)c2c[nH]c3nccc(OC)c23)c1F` , please look it up.
Key: ≤ 10000 nM

Exercise: Return IC50 measured with Vascular endothelial growth factor receptor 2 (Homo sapiens) given this compound: `CCCS(=O)(=O)Nc1ccc(F)c(C(=O)c2c[nH]c3ncc(-c4ccn[nH]4)cc23)c1F`
Key: ≤ 10000 nM

Exercise: Any idea what IC50 came out for `O=C(c1c(F)ccc(NS(=O)(=O)c2ccc3oc(=O)ccc3c2)c1F)c1c[nH]c2ncc(Cl)cc12` on Vascular endothelial growth factor receptor 2 (Homo sapiens)?
Key: ≤ 10000 nM

Exercise: Hello, I am looking for reported IC50 with Vascular endothelial growth factor receptor 2 (Homo sapiens) for `O=C(c1c(F)ccc(NS(=O)(=O)C2CC2)c1F)c1c[nH]c2ncc(-c3ccc(Cl)cc3)cc12` . Could you help?
Key: ≤ 10000 nM

Exercise: # query: IC50 | item `O=C(Nc1ccc(Oc2cc(NC(=O)C3CC3)ncn2)c(F)c1)Nc1ccc(Cl)c(C(F)(F)F)c1` | system: Vascular endothelial growth factor receptor 2 (Homo sapiens)
Key: 5.7 nM

Exercise: Given the entry `C[C@@H](Nc1ncnc2[nH]c(-c3ccc(OCC(=O)NO)cc3)cc12)c1ccccc1` , what IC50 was observed with Vascular endothelial growth factor receptor 2 (Homo sapiens)?
Key: 1000 to 10000 nM

Exercise: Test system Vascular endothelial growth factor receptor 2 (Homo sapiens); read-out IC50; what value for `Cc1cccc(Cl)c1C(=O)N[C@H]1[C@@H]2CN(c3ccc(-c4cc(-c5cnn(C)c5)cn5ncc(C#N)c45)cn3)C[C@@H]21` ?
Key: ≤ 10 nM

Exercise: Notebook entry, Vascular endothelial growth factor receptor 2 (Homo sapiens) assay: IC50 of `COc1cc2nccc(Oc3ccc(NC(=S)N4CCC(F)(F)C4)c(Cl)c3)c2cc1C(N)=O` = ?
Key: 50 to 200 nM

Exercise: Enter reported IC50 observed with Vascular endothelial growth factor receptor 2 (Homo sapiens) for `COc1cc2ncnc(Oc3ccc(NC(=O)c4cccn(-c5ccc(F)cc5)c4=O)cc3F)c2c2c1OCCO2`
Key: ≤ 50 nM

Exercise: Which IC50 is reported with Vascular endothelial growth factor receptor 2 (Homo sapiens) for this entry: `Nc1nc(NCCN2CCOCC2)cc(-c2cc(-c3ccc(O)cc3)ccc2O)n1` ?
Key: 1000 to 20000 nM

Exercise: Give the reported IC50 for `Cn1cc(-c2cc(Oc3cccc(NC(=O)c4ccc5ccccc5c4)c3)ccn2)cn1` (system: Vascular endothelial growth factor receptor 2 (Homo sapiens)).
Key: > 10000 nM

Exercise: // map `COc1cnc2[nH]cc(C(=O)c3c(F)ccc(NS(=O)(=O)CC(C)C)c3F)c2c1` to recorded IC50 (system: Vascular endothelial growth factor receptor 2 (Homo sapiens))
Key: ≤ 10000 nM
